Ref: the supplement of paper PMC4862054

System: MFM-223
Test: drug sensitivity score (DSS), CellTiter-Blue viability (DSS (AUC-based score)); higher = stronger viability inhibition; extreme values may be limits of the assay
Settings: incubation time: 72 h
Measured Metric: drug sensitivity score
No unit in the answer, only the number.

See these solved cases before continuing.
Cc1cnc(NC(=O)Nc2cc(Br)c(C)cc2OC[C@@H]2CNCCO2)cn1 = 0
C=CC(=O)N1CCC[C@@H](n2nc(-c3ccc(Oc4ccccc4)cc3)c3c(N)ncnc32)C1 = 0

drug sensitivity score for Nc1nc2[nH]cc(CCc3ccc(C(=O)N[C@@H](CCC(=O)O)C(=O)O)cc3)c2c(=O)[nH]1 is 0

drug sensitivity score for Nc1ccccc1NC(=O)c1ccc(CNC(=O)OCc2cccnc2)cc1 is 5.32

drug sensitivity score for COc1cc2c(Oc3ccc4[nH]c(C)cc4c3F)ncnc2cc1OCCCN1CCCC1 is 0

drug sensitivity score for CC1=C(/C=C/C(C)=C/C=C/C(C)=C/C(=O)O)C(C)(C)CCC1 is 0

drug sensitivity score for CCCS(=O)(=O)Nc1ccc(F)c(C(=O)c2c[nH]c3ncc(-c4ccc(Cl)cc4)cc23)c1F is 0

drug sensitivity score for Nc1nc(F)nc2c1ncn2[C@@H]1O[C@H](CO)[C@@H](O)[C@@H]1O is 0

====

Test system: SK-BR-3
Conditions: 72 h
Note to self: use y only for EC50, CellTiter-Blue viability readings below 90 nM; a reading exactly at 90 nM still gets n.

Prompt: Is it true that EC50, CellTiter-Blue viability reported for Nc1ccccc1NC(=O)c1ccc(CNC(=O)OCc2cccnc2)cc1 is less than 90 nM?
Completion: n

Prompt: Is it true that EC50, CellTiter-Blue viability reported for C=CC(=O)N1CCC[C@@H](n2nc(-c3ccc(Oc4ccccc4)cc3)c3c(N)ncnc32)C1 is less than 90 nM?
Completion: y

Prompt: Is it true that EC50, CellTiter-Blue viability reported for CCN(CC)CCCC(C)Nc1c2ccc(Cl)cc2nc2ccc(OC)cc12 (stereo not drawn) is less than 90 nM?
Completion: n

Prompt: Is it true that EC50, CellTiter-Blue viability reported for O=C(Cc1ccc(-c2ccc(OCCN3CCOCC3)cc2)cn1)NCc1ccccc1 is less than 90 nM?
Completion: y

Prompt: Is it true that EC50, CellTiter-Blue viability reported for CC1=C(/C=C/C(C)=C/C=C/C(C)=C/C(=O)O)C(C)(C)CCC1 is less than 90 nM?
Completion: n

Prompt: Is it true that EC50, CellTiter-Blue viability reported for COc1cc2nccc(Oc3ccc(NC(=O)Nc4cc(C)on4)c(Cl)c3)c2cc1OC is less than 90 nM?
Completion: n

Prompt: Is it true that EC50, CellTiter-Blue viability reported for CC[C@@H]1C(=O)N(C)c2cnc(Nc3ccc(C(=O)NC4CCN(C)CC4)cc3OC)nc2N1C1CCCC1 is less than 90 nM?
Completion: y

====

Tested on: CAL-148
Test: normalised response (% of control), CellTiter-Glo; higher = more viable cells (100 = DMSO, 0 = benzethonium chloride kill control)
Details: incubation time: 72 h
Listing: normalised response of selected molecules
Write it as a number; the unit % goes unstated.

See these solved cases before continuing.
O=C(O)C1(C(=O)O)CCC1.[NH2-].[NH2-].[Pt+2] [Carboplatin] (10 nM) = 105
CCc1cncnc1N1CCN(Cc2nc3ccc(C(F)(F)F)cc3[nH]2)CC1 (10 nM) = 115

normalised response for COc1cc2c(NC3CCN(C(C)C)CC3)nc(C3CCCCC3)nc2cc1OCCCN1CCCC1 [UNC0638] (10 nM) is 90.8

normalised response for CCCS(=O)(=O)Nc1ccc(F)c(C(=O)c2c[nH]c3ncc(-c4ccc(Cl)cc4)cc23)c1F [Vemurafenib] (1000 nM) is 86.4

normalised response for Cc1ccc(-c2cc(C(F)(F)F)nn2-c2ccc(S(N)(=O)=O)cc2)cc1 [Celecoxib] (1 nM) is 102

normalised response for Nc1nc(F)nc2c1ncn2[C@@H]1O[C@H](CO)[C@@H](O)[C@@H]1O [Fludarabine] (10 nM) is 108

normalised response for N#Cc1ccc(C(c2ccc(C#N)cc2)n2cncn2)cc1 [Letrozole] (1000 nM) is 94.7

normalised response for N#Cc1ccc(C(c2ccc(C#N)cc2)n2cncn2)cc1 [Letrozole] (10 nM) is 99.3

normalised response for CC[C@H](Nc1ncnc2[nH]cnc12)c1nc2cccc(F)c2c(=O)n1-c1ccccc1 [GS-1101] (1000 nM) is 97.7

normalised response for CC[C@H](Nc1ncnc2[nH]cnc12)c1nc2cccc(F)c2c(=O)n1-c1ccccc1 [GS-1101] (1 nM) is 84.8

====

Test system: Hs578T
Assay: normalised viability (% of control), CellTiter-Blue; higher = more viable cells (about 100 = DMSO control)
Details: 10 nM; incubation time: 72 h
Listing: normalised viability of selected molecules
Write it as a number; the unit % goes unstated.

See these solved cases before continuing.
COc1cc([C@@H]2c3cc4c(cc3[C@@H](O[C@@H]3O[C@@H]5CO[C@@H](c6cccs6)O[C@H]5[C@H](O)[C@H]3O)[C@H]3COC(=O)[C@H]23)OCO4)cc(OC)c1O [Teniposide] = 109
O=C(Cc1ccc(-c2ccc(OCCN3CCOCC3)cc2)cn1)NCc1ccccc1 = 94.4
C=CC(=O)Nc1cc2c(Nc3ccc(F)c(Cl)c3)ncnc2cc1OCCCN1CCOCC1 = 96
C1CN1c1nc(N2CC2)nc(N2CC2)n1 = 145

Turning now to a further record.
normalised viability for CCCCC(=O)OCC(=O)[C@]1(O)Cc2c(O)c3c(c(O)c2[C@@H](O[C@H]2C[C@H](NC(=O)C(F)(F)F)[C@H](O)[C@H](C)O2)C1)C(=O)c1c(OC)cccc1C3=O is 98.8

====

Test system: BT-474
Test: normalised viability (% of control), CellTiter-Blue; higher = more viable cells (about 100 = DMSO control)
Conditions: 100 nM; incubation time: 72 h
Measured Metric: normalised viability (%)
Write it as a number; the unit % goes unstated.

See these solved cases before continuing.
CCCCC(=O)OCC(=O)[C@]1(O)Cc2c(O)c3c(c(O)c2[C@@H](O[C@H]2C[C@H](NC(=O)C(F)(F)F)[C@H](O)[C@H](C)O2)C1)C(=O)c1c(OC)cccc1C3=O = 109
NCCCNCCSP(=O)(O)O = 95.8
Oc1ncc(N(CCCl)CCCl)c(O)n1 = 106

Observed normalised viability on BT-474, entry C1CN1c1nc(N2CC2)nc(N2CC2)n1 , equals 113

Observed normalised viability on BT-474, entry O=C(O)C1(C(=O)O)CCC1.[NH2-].[NH2-].[Pt+2] , equals 116

Observed normalised viability on BT-474, entry CCCS(=O)(=O)Nc1ccc(F)c(C(=O)c2c[nH]c3ncc(-c4ccc(Cl)cc4)cc23)c1F , equals 111

====

System: BT-549
Settings: 72 h
Measured Metric: EC50, CellTiter-Blue viability (nM)
Write it as a number; the unit nM goes unstated.

O=C(O)C(=O)O.[NH-][C@@H]1CCCC[C@H]1[NH-].[Pt+2] [Oxaliplatin] = 3550
CCN(CC)CCCC(C)Nc1c2ccc(Cl)cc2nc2ccc(OC)cc12 (centres undefined) [Mepacrine] = 1440
CCCCC(=O)OCC(=O)[C@]1(O)Cc2c(O)c3c(c(O)c2[C@@H](O[C@H]2C[C@H](NC(=O)C(F)(F)F)[C@H](O)[C@H](C)O2)C1)C(=O)c1c(OC)cccc1C3=O [Valrubicin] = 1090

EC50, CellTiter-Blue viability for C=CC(=O)Nc1cc2c(Nc3ccc(F)c(Cl)c3)ncnc2cc1OCCCN1CCOCC1 [Canertinib] is 2480

====

System: CAL-51
Settings: 72 h
Measured Metric: EC50, CellTiter-Glo (nM)
Write it as a number; the unit nM goes unstated.

EC50, CellTiter-Glo for CC[C@H](C)C(=O)O[C@H]1C[C@H](O)C=C2C=C[C@H](C)[C@H](CC[C@@H](O)C[C@@H](O)CC(=O)O)[C@H]21 is 78

====

Test system: MDA-MB-468
Test: normalised viability (% of control), CellTiter-Blue; higher = more viable cells (100 = DMSO, 0 = benzethonium chloride kill control)
Details: 1 nM; incubation time: 72 h
Listing: normalised viability of selected compounds
Write it as a number; the unit % goes unstated.

normalised viability for C1CN1c1nc(N2CC2)nc(N2CC2)n1 is 102

normalised viability for COc1cc2nccc(Oc3ccc(NC(=O)Nc4cc(C)on4)c(Cl)c3)c2cc1OC is 98.3

normalised viability for CCc1cncnc1N1CCN(Cc2nc3ccc(C(F)(F)F)cc3[nH]2)CC1 is 109

normalised viability for NCCCNCCSP(=O)(O)O is 111

====

Tested on: BT-549
Experiment: normalised response (% of control), CellTox Green; higher = less cell death (100 = DMSO, 0 = benzethonium chloride kill control)
Conditions: incubation time: 72 h
Where normalised response equals or exceeds 90%, the correct label is condition met; where it does not, the label is condition not met.

Known results for molecules:
CNC(=O)c1cc(Oc2ccc(NC(=O)Nc3cc(C(C)(C)C)nn3-c3ccc4ncccc4c3)c(F)c2)ccn1 [Rebastinib] (10 nM) = condition met
O=C(O)C1(C(=O)O)CCC1.[NH2-].[NH2-].[Pt+2] [Carboplatin] (100 nM) = condition not met
Nc1nc(F)nc2c1ncn2[C@@H]1O[C@H](CO)[C@@H](O)[C@@H]1O [Fludarabine] (1000 nM) = condition met
O=C(O)C(=O)O.[NH-][C@@H]1CCCC[C@H]1[NH-].[Pt+2] [Oxaliplatin] (1000 nM) = condition met

Prompt: I'd appreciate it if you could say whether O=C(/C=C/c1cccnc1)NCCCCC1CCN(C(=O)c2ccccc2)CC1 [Daporinad] (100 nM) has normalised response at least equal to 90%.
Completion: condition met

Prompt: I'd appreciate it if you could say whether CCCS(=O)(=O)Nc1ccc(F)c(C(=O)c2c[nH]c3ncc(-c4ccc(Cl)cc4)cc23)c1F [Vemurafenib] (100 nM) has normalised response at least equal to 90%.
Completion: condition met

Prompt: I'd appreciate it if you could say whether COc1cc2c(NC3CCN(C(C)C)CC3)nc(C3CCCCC3)nc2cc1OCCCN1CCCC1 [UNC0638] (100 nM) has normalised response at least equal to 90%.
Completion: condition not met

Prompt: I'd appreciate it if you could say whether O=C(O)CCCCC(CCSCc1ccccc1)SCc1ccccc1 (stereo unspecified) [CPI-613] (100 nM) has normalised response at least equal to 90%.
Completion: condition met

Prompt: I'd appreciate it if you could say whether CCc1cncnc1N1CCN(Cc2nc3ccc(C(F)(F)F)cc3[nH]2)CC1 (100 nM) has normalised response at least equal to 90%.
Completion: condition not met
